measurementTarget: T1, Antibody 1 (germlined IgG1)
T1 construct: also called germlined Antibody 1 IgG1; antibody 1 (IgG1)
T1 sequence (VH, as listed by the source, chain 1 of 2): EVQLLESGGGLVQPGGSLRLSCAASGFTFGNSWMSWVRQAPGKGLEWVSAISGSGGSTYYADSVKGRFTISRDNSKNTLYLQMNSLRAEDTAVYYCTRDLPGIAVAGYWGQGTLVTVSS
T1 sequence (VL, as listed by the source, chain 2 of 2): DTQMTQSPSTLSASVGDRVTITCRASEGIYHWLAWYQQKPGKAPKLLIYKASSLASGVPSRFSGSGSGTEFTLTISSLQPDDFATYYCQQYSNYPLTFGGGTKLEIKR
procedureText: CXCL13 FLISA competition: soluble chemokine titrated against 0.31 nM Antibody 1 germlined IgG1 binding to bead-bound biotinylated human CXCL13 (n = 1)
Description: Samples and reagents were diluted in Assay Buffer (Phosphate Buffered Saline with 0.1% BSA, 0.1% Tween-20 and 0.01% sodium azide). 0.25 nM biotinylated CXCL13 (Almac) was pre-incubated with 0.004% w/v 6-8 μm streptavidin coated polystyrene particles (Spherotec SVP-60-5) for 1 hour at room temperature. […] FL1 signal was read on the Applied Biosystems Cellular Detection System 8200. Data was analysed using the Wang Goldman algorithm with gating of size 3-12, colour ratio <0.4, minimum count 20. […]
measuredQuantity: pIC50
pIC50 field: float, defined as -log10 of concentration (mol/L).

The recorded pIC50 for Human CXCL13 (MEL cell derived), unglycosylated (ligand, also called hCXCL13; Unglycosylated hCXCL13) VLEVYYTSLRCRCVQESSVFIPRRFIDRIQILPRGNGCPRKEIIVWKKNKSIVCVDPQAEWIQRMMEVLRKRSSSTLPVPVF is 9.70
